assayDetails: clinical
particulars: human, in vivo, po
Would you mind telling me the reported bioavailability of each entry?

Item under review: Cc1c(OCC(F)(F)F)ccnc1C[S+]([O-])c1nc2ccccc2[nH]1 (centres undefined) . Reported bioavailability?
≥ 80%

Which bioavailability is reported for this molecule? CNC1(c2ccccc2Cl)CCCCC1=O (centres undefined)
≤ 20%

Find the recorded bioavailability belonging to CCC1(c2cccc(O)c2)CCCCN(C)C1 (centres undefined) and report it.
≤ 20%

Fill in: bioavailability of CCC1(c2ccccc2)C(=O)NC(=O)NC1=O is ___
> 80%

# get_value(readout='bioavailability', item= O=C1CN=C(c2ccccc2Cl)c2cc([N+](=O)[O-])ccc2N1 )
> 80%

For the molecule O=c1[nH]cc(F)c(=O)[nH]1 , what bioavailability is on record?
49%

# get_value(readout='bioavailability', item= C=CCN1CC[C@]23c4c5ccc(O)c4O[C@H]2C(=O)CC[C@@]3(O)[C@H]1C5 )
< 20%

Requested read-out: bioavailability. Entry: Cc1ccnc2c1NC(=O)c1cccnc1N2C1CC1
≥ 80%

Reported bioavailability for CCNCC(O)c1cccc(O)c1 (centres undefined) : what is it?
49%

---

particulars: octanol/water
Please respond with reported delta logD for every item in the list.
Give the figure only, with no unit attached.

Entry under review: COCC(=O)O[C@]1(CCN(C)CCCc2nc3ccccc3[nH]2)CCc2cc(F)ccc2[C@@H]1C(C)C . Reported delta logD?
-0.9

Entry CCCCNc1cc(C(=O)O)cc(S(N)(=O)=O)c1Oc1ccccc1 [BUMETANIDE] : reported delta logD = ?
0.9

// delta logD lookup, key: Fc1ccc([C@@H]2CCNC[C@H]2COc2ccc3c(c2)OCO3)cc1
-0.9

For CC(CN1c2ccccc2Sc2ccccc21)N(C)C (stereo not given) , what is its reported delta logD?
-0.89

Could you share which delta logD value was measured for CC1=NS(=O)(=O)c2cc(Cl)ccc2N1 [DIAZOXIDE] ?
0.03

delta logD for CN(C)CCC=C1c2ccccc2COc2ccccc21 [DOXEPIN] ?
-0.82

Item CC(C)N(CCC(C(N)=O)(c1ccccc1)c1ccccn1)C(C)C (stereo not given) [DISOPYRAMIDE] has what recorded delta logD?
-0.9

// returns reported delta logD for input CC(NCCc1ccc(O)cc1)C(O)c1ccc(O)cc1 (stereo not given)
-0.89

Please report the recorded delta logD for COc1ccc2c(c1)N(C[C@H](C)CN(C)C)c1ccccc1S2 .
-0.89

Given the entry COc1ccc2cc(CCC(C)=O)ccc2c1 , report its measured delta logD.
0

Quick one: delta logD of CC(C)NCC(O)COc1cccc2[nH]ccc12 (stereo not given) ?
-0.88

Which delta logD is listed for Cc1ncc([N+](=O)[O-])n1CCO ?
0

# lookup: delta logD of CN(Cc1cnc2nc(N)nc(N)c2n1)c1ccc(C(=O)N[C@@H](CCC(=O)O)C(=O)O)cc1 [METHOTREXATE]
0.9

Recorded delta logD of CC(C)NCC(O)COc1ccc(COCCOC(C)C)cc1 (stereo not given) , please.
-0.89

Looking for the measured delta logD of CCC(C)(C)NCC(O)COc1ccccc1C(=O)CCc1ccccc1 (stereo not given) , can you help?
-0.89

---

particulars: octanol/water
logD strictly under -2 means Criterion met; at -2 or over means Criterion not met.

Dear colleague, could you confirm whether logD of CN(Cc1cnc2nc(N)nc(N)c2n1)c1ccc(C(=O)N[C@@H](CCC(=O)O)C(=O)O)cc1 [METHOTREXATE] falls below -2? Thanks.
Criterion met

Hello, is logD of the following compound strictly smaller than -2? CC(C)(C)NCC(O)COc1cccc2c1CC(O)C(O)C2 (stereo not given)
Criterion met

Strictly below -2 in logD? OCCN1CCN(CCCN2c3ccccc3Sc3ccc(Cl)cc32)CC1
Criterion not met

API: query returns whether the compound falls strictly under -2 in logD. Query: CN1CCN(CC(=O)N2c3ccccc3C(=O)Nc3cccnc32)CC1 [PIRENZEPINE]
Criterion not met

Would you kindly verify if logD of CC[C@@H](CO)NCCN[C@@H](CC)CO is strictly less than -2?
Criterion met
